System tested: UniProt P02766
Assay protocol: Inhibition of human TTR amyloidogenesis assessed as fibril formation at 7.2 uM after 72 hrs by acid-mediated aggregation assay relative to control
Set-up: scale not given: the % may be the effect or the level left
Rule: Activity of 70% or more gives 1; anything lower gives 0.

Exam item: // inclusive: Activity at least 70%? input: COc1c(F)cc(-c2nc3ccccc3o2)cc1F
Marked response: 1

Exam item: Check if Activity >= 70% (inclusive). Item: Oc1cc(O)cc(-c2nc3ccccc3o2)c1
Marked response: 0

Exam item: Does Oc1c(F)cc(-c2nc3ccccc3o2)cc1F have a reported Activity of at least 70%?
Marked response: 0

Exam item: Evaluate Oc1ccc(-c2nc3ccccc3o2)cc1F : Activity at minimum 70%?
Marked response: 0

Exam item: Decide: Activity of Clc1cc(Cl)cc(-c2nc3ccccc3o2)c1 >= 70%?
Marked response: 0

Exam item: Does Activity meet or surpass 70% for COc1ccc(-c2nc3ccccc3o2)cc1I ?
Marked response: 1

Exam item: Identify whether the reported Activity of the following compound is 70% or greater: COc1c(C)cc(-c2nc3ccccc3o2)cc1C
Marked response: 0

Exam item: Quick check: does Oc1ccc(-c2nc3ccccc3o2)cc1O have Activity greater than or equal to 70%?
Marked response: 0

Exam item: Reported Activity at or above 70%? COc1ccc(-c2nc3ccccc3o2)cc1C
Marked response: 1

Exam item: Dear colleague, could you confirm whether Brc1cccc(-c2nc3ccccc3o2)c1 has Activity at or above 70%?
Marked response: 0

Exam item: For this compound, is measured Activity 70% or higher? COc1ccc(-c2nc3ccccc3o2)cc1OC
Marked response: 1

Exam item: Reported Activity reaches at least 70% for Cc1cc(C)cc(-c2nc3ccccc3o2)c1 ?
Marked response: 0

Exam item: Please indicate if the recorded Activity for COc1ccc(-c2nc3ccccc3o2)cc1C(F)(F)F meets or exceeds 70%.
Marked response: 1

Exam item: Does Oc1ccc(-c2nc3ccccc3o2)cc1Br have a reported Activity of at least 70%?
Marked response: 0

Exam item: Hello, I need to know if Ic1cccc(-c2nc3ccccc3o2)c1 has measured Activity not below 70%. Thanks!
Marked response: 0

Exam item: Is Activity for c1ccc(-c2nc3ccccc3o2)cc1 at or above 70%?
Marked response: 1

Exam item: Kindly determine if Activity recorded for Brc1cc(Br)cc(-c2nc3ccccc3o2)c1 is above or exactly 70%.
Marked response: 0

Exam item: Has Fc1cccc(-c2nc3ccccc3o2)c1 a recorded Activity greater than or equal to 70%?
Marked response: 1

Exam item: Does the compound COc1c(I)cc(-c2nc3ccccc3o2)cc1I have recorded Activity that is 70% or more?
Marked response: 1

Exam item: Reported Activity reaches at least 70% for Oc1c(Cl)cc(-c2nc3ccccc3o2)cc1Cl ?
Marked response: 0

Exam item: Does FC(F)(F)c1cc(-c2nc3ccccc3o2)cc(C(F)(F)F)c1 have a reported Activity of at least 70%?
Marked response: 1

Exam item: Could you tell me if the measured Activity of COc1cc(OC)cc(-c2nc3ccccc3o2)c1 reaches 70% or more?
Marked response: 0

Exam item: API: above_or_equal(metric=Activity, cutoff=70%) for item COc1c(Cl)cc(-c2nc3ccccc3o2)cc1Cl
Marked response: 1

Exam item: Check if Activity >= 70% (inclusive). Item: COc1c(Br)cc(-c2nc3ccccc3o2)cc1Br
Marked response: 1

Exam item: Does the compound COc1ccc(-c2nc3ccccc3o2)cc1 have recorded Activity that is 70% or more?
Marked response: 1

Exam item: Could you tell me if the measured Activity of COc1ccc(-c2nc3ccccc3o2)cc1Cl reaches 70% or more?
Marked response: 1

Exam item: Hi, just wondering whether Oc1ccc(-c2nc3ccccc3o2)cc1C(F)(F)F shows Activity of 70% or higher.
Marked response: 0

Exam item: Item Fc1cc(F)cc(-c2nc3ccccc3o2)c1 with Activity of 70% or above?
Marked response: 1

Exam item: Dear colleague, could you confirm whether Oc1ccc(-c2nc3ccccc3o2)cc1Cl has Activity at or above 70%?
Marked response: 0

Exam item: Hi team, for COc1cccc(-c2nc3ccccc3o2)c1 , is the recorded Activity at or above 70%?
Marked response: 1

Exam item: Has Clc1cccc(-c2nc3ccccc3o2)c1 a recorded Activity greater than or equal to 70%?
Marked response: 0

Exam item: Hi, just wondering whether Oc1cccc(-c2nc3ccccc3o2)c1 shows Activity of 70% or higher.
Marked response: 0

Exam item: hey, is Activity for this one >= 70%? COc1ccc(-c2nc3ccccc3o2)cc1F
Marked response: 1

Exam item: Entry FC(F)(F)c1cccc(-c2nc3ccccc3o2)c1 : is its Activity no less than 70%?
Marked response: 1

Exam item: I'd appreciate it if you could say whether Oc1c(I)cc(-c2nc3ccccc3o2)cc1I has Activity at least equal to 70%.
Marked response: 0

Exam item: Quick check: does COc1ccc(-c2nc3ccccc3o2)cc1Br have Activity greater than or equal to 70%?
Marked response: 1

Exam item: Say whether Cc1cc(-c2nc3ccccc3o2)ccc1O shows Activity of 70% or more.
Marked response: 0

Exam item: Could you tell me if the measured Activity of Cc1cc(-c2nc3ccccc3o2)cc(C)c1O reaches 70% or more?
Marked response: 0

Exam item: Test whether the compound Oc1c(Br)cc(-c2nc3ccccc3o2)cc1Br records Activity of 70% or higher.
Marked response: 0

Exam item: Threshold query (Activity >= 70%) on Oc1ccc(-c2nc3ccccc3o2)cc1I
Marked response: 0
